Test system: UO-31 renal
method: NCI-60 one-dose screen, 48 h
details: 10 µM unless noted
The panel holds about 83,000 compounds, 20% with a hit somewhere; the sample as a whole holds those more often. Calls of active or inactive are those of the source. Rule for the calls: active = growth percent below 10; inactive = the rest.
Possible outcomes: 1 (yes) for active, 0 (no) for inactive

- compound: "CCOC(=O)c1c(Nc2ccccc2)nn2c(N)c(C#N)c(-c3ccc(OC)cc3)nc12"
  assigned category: "0 (no)"
- compound: "CCN1C(=S)N(c2ccccc2)C2NC(=O)N(/N=C/C=C/c3ccccc3OC)C21 (centres undefined)"
  assigned category: "0 (no)"
- compound: "CN1CCN(Cc2ccc(NC(=O)c3cncc(C#Cc4cnc5ccc(N6CCSCC6)nn45)c3)cc2C(F)(F)F)CC1"
  assigned category: "1 (yes)"
- compound: "NS(=O)(=O)c1cccc(Nc2nc(SCC(=O)c3ccc(Cl)cc3)nc3ccccc23)c1"
  assigned category: "0 (no)"
- compound: "CC(=O)Oc1ccccc1C(=O)Nc1cc(C(C)C)ccc1C"
  assigned category: "1 (yes)"
- compound: "COc1ccc(-c2csc(N/N=C/c3c(-c4ccc(S(C)(=O)=O)cc4)nc4ccccn34)n2)cc1"
  assigned category: "0 (no)"
- compound: "C[C@@H]1CN(c2ccc3ncc(C#Cc4cncc(C(=O)Nc5ccc(CN6CCN(C)CC6)c(C(F)(F)F)c5)c4)n3n2)C[C@H](C)O1"
  assigned category: "1 (yes)"
- compound: "COC(=O)C1CN(S(=O)(=O)/N=C2\\NC(=O)NC2=C(Cl)Cl)C1"
  assigned category: "0 (no)"
- compound: "CN(C)CCCOc1c2ccc(Cl)cc2nc2c1oc1ccccc12"
  assigned category: "1 (yes)"
- compound: "Clc1ccc(-c2cn3cc(Cc4ccc(Cl)c(Cl)c4)sc3n2)cc1"
  assigned category: "0 (no)"
- compound: "O=C(NNc1nc2cc(F)ccc2n2c(CN3CC4(COC4)C3)ccc12)c1cnccn1"
  assigned category: "0 (no)"
- compound: "COc1cc(/C=C/C(=O)c2ccc(Cl)cc2)ccc1Oc1nc(NCCO)nc(N2CCOCC2)n1"
  assigned category: "0 (no)"
- compound: "COc1cccc(OC)c1-c1nnn(C)c1C(=S)N1CCN(c2ccc([N+](=O)[O-])cc2Cl)CC1"
  assigned category: "0 (no)"
- compound: "COc1cc2cc(Oc3ccc(NC(=O)c4cccc(C(F)(F)F)c4)cc3)c(C)nc2cc1OCCN1CCCCC1"
  assigned category: "0 (no)"
- compound: "O=C(N/N=C/c1ccc[nH]1)c1[nH]c2ccc(Br)cc2c1-c1ccccc1"
  assigned category: "0 (no)"
- compound: "O=C1Nc2cc(Cl)ccc2/C1=C\\c1ccc(OCc2ccc([N+](=O)[O-])cc2)cc1"
  assigned category: "0 (no)"
- compound: "CCN1C(=S)N(CC)C2C1NN=C1SC(c3ccccc3)=CC(=O)N12 (centres undefined)"
  assigned category: "0 (no)"
- compound: "CN(C)CCCNc1c2ccc(Cl)cc2nc2c1oc1ccccc12"
  assigned category: "0 (no)"
- compound: "CN(C)c1ccc(/C=c2\\sc3nc4ccccc4n3c2=O)cc1"
  assigned category: "0 (no)"
- compound: "Cc1cccc2sc(/N=C(\\N)C(Br)Br)nc12"
  assigned category: "0 (no)"
- compound: "COc1ccc(-c2nc3ccc(-c4nnc(SCC(=O)Nc5ccc(C(=O)/C=C/c6ccc(Cl)cc6)cc5)o4)cc3[nH]2)cc1OC"
  assigned category: "0 (no)"
- compound: "CC(C)(C)OC(=O)N1C(=O)c2c(c3c4ccccc4[nH]c3c3ccc4ccccc4c23)C1=O"
  assigned category: "0 (no)"
- compound: "COc1cc(-c2ccc3ncnc(NC(C)c4ccccc4)c3c2)cnc1OC (centres undefined)"
  assigned category: "0 (no)"
- compound: "CCOc1ccc2nc(NC(=O)c3ccc(C(F)(F)F)cc3)sc2c1"
  assigned category: "0 (no)"
- compound: "CCN1CCN(S(=O)(=O)c2oc(-c3ccc(Cl)cc3)nc2C#N)CC1"
  assigned category: "0 (no)"
- compound: "O=C1c2c(c3c4cc(Br)ccc4[nH]c3c3ccc4ccccc4c23)C(=O)N1CCO"
  assigned category: "0 (no)"
- compound: "O=C1Nc2ccc(Cl)cc2/C1=C/c1ccc(OCC(=O)c2ccc(Br)cc2)cc1"
  assigned category: "0 (no)"
- compound: "NS(=O)(=O)c1cccc(Nc2nc(SCC(=O)c3ccc(Br)cc3)nc3ccccc23)c1"
  assigned category: "0 (no)"
- compound: "O=c1/c(=C\\c2ccc(-c3ccccc3)o2)sc2nc(-c3ccccc3)nn12"
  assigned category: "0 (no)"
- compound: "Cc1cc(C(=O)Nc2sc3c(c2C(N)=O)CCC(=O)C3)ccc1OCCN1CCCCC1"
  assigned category: "0 (no)"
- compound: "O=C1c2c(c3c4cccnc4[nH]c3c3ccc4ccccc4c23)C(=O)N1CCO"
  assigned category: "0 (no)"
- compound: "Clc1ccc2oc3c(OCCCn4ccnc4)c4ccccc4nc3c2c1"
  assigned category: "0 (no)"
- compound: "N#Cc1nc(-c2ccccc2)oc1S(=O)(=O)N1CCN(CCc2ccccn2)CC1"
  assigned category: "1 (yes)"
- compound: "O=C1C2=C(C(=O)c3c(O)cccc31)C(c1ccco1)c1sc(=O)[nH]c1S2 (centres undefined)"
  assigned category: "0 (no)"
- compound: "Cc1nc2cnc(N)c(C#Cc3cncc(C(=O)Nc4ccc(Cl)c(C(F)(F)F)c4)c3)c2nc1C"
  assigned category: "0 (no)"
- compound: "O=c1[nH]c2ccccc2cc1CSc1ccccc1Nc1nccc(-c2ccc(C(F)(F)F)cc2)n1"
  assigned category: "0 (no)"
- compound: "c1ccc2c(NCCCN3CCOCC3)c3oc4ccccc4c3nc2c1"
  assigned category: "1 (yes)"
- compound: "Oc1c(Cl)cc(Cl)c2ccc(CN3CCCCC3)nc12"
  assigned category: "0 (no)"
- compound: "C#C[C@]1(O)CC[C@H]2[C@@H]3CC=C4c5sc(-c6ccc(F)cn6)nc5CC[C@]4(C)[C@H]3CC[C@@]21C"
  assigned category: "0 (no)"

###

Tested on: A549/ATCC NSCLC
method: NCI-60 one-dose screen, 48 h (100 = growth as untreated, 0 = no growth, -100 = all killed)
details: 10 µM unless noted
Compounds without any hit were thinned out: in the full panel of roughly 83,000, 20% have a hit.
growth values for the compounds below.

- compound: "Cc1nc(-c2cc3ccccc3oc2=O)ccc1C(=O)/C=C/c1ccccn1"
  assayed target: "A549/ATCC NSCLC"
  growth [%]: 66.5
- compound: "COc1ccc(-c2cc(C(=O)N=Nc3c(O)[nH]c4ccccc34)c3ccccc3n2)cc1OC"
  assayed target: "A549/ATCC NSCLC"
  growth [%]: 95.7
- compound: "COc1cccc(-c2nn(-c3ccccc3)cc2-c2ccnc(N3CCN(C(=O)c4ccccc4)CC3)c2)c1"
  assayed target: "A549/ATCC NSCLC"
  growth [%]: 71.7
- compound: "CC(=O)Oc1ccccc1C(=O)Nc1cc(C(C)C)ccc1C"
  assayed target: "A549/ATCC NSCLC"
  growth [%]: 13.1
- compound: "CC(O)C(NC(=O)C1CCCN1C(=O)CNC(=O)C1CC(=O)NCC(=O)NC(Cc2c[nH]c3ccccc23)C(=O)NC(Cc2ccc(O)cc2)C(=O)NCC(=O)NC(CO)C(=O)NC(CCC(N)=O)C(=O)NC(Cc2c[nH]c3ccccc23)C(=O)N1)C(=O)NCC(=O)NC(CCC(N)=O)C(=O)NC(CCCNC(=N)N)C(=O)NC(CC(=O)O)C(=O)O (configuration not stated)"
  assayed target: "A549/ATCC NSCLC"
  growth [%]: 105
- compound: "O=C(CSc1nccc(=O)[nH]1)Nc1ccc(-c2nc3ccccc3[nH]2)cc1"
  assayed target: "A549/ATCC NSCLC"
  growth [%]: 110
- compound: "N#Cc1c(-c2ccc(Cl)cc2)nc2c(-c3ccccc3)c(Nc3ccccc3)nn2c1N"
  assayed target: "A549/ATCC NSCLC"
  growth [%]: 29.5
- compound: "C#Cc1nc(C2=C(C)C(OC(=O)CCC(=O)O)CC2)cs1 (configuration not stated)"
  assayed target: "A549/ATCC NSCLC"
  growth [%]: 90.7
- compound: "CCOC(=O)c1c(Nc2ccccc2)nn2c(N)c(C#N)c(-c3ccc(OC)cc3)nc12"
  assayed target: "A549/ATCC NSCLC"
  growth [%]: 69
- compound: "Cc1c(Nc2nnc(SCC(=O)Nc3sc4c(c3C#N)CCCC4)s2)c(=O)n(-c2ccccc2)n1C"
  assayed target: "A549/ATCC NSCLC"
  growth [%]: 106
- compound: "CCCC(=O)NC(c1ccc2c(c1)OC(F)(F)O2)c1cc(C)c2cccnc2c1O (configuration not stated)"
  assayed target: "A549/ATCC NSCLC"
  growth [%]: 16.5
- compound: "Cn1ccnc1C(=O)/C=C/c1ccc(NC(=O)Nc2ccc(Cl)cc2)cc1"
  assayed target: "A549/ATCC NSCLC"
  growth [%]: 86.8
- compound: "O=C1[C@H]2Cc3c([nH]c4ccccc34)[C@@H](c3ccc(Br)cc3)N2C(=O)CN1C1CCN(Cc2ccccc2)CC1"
  assayed target: "A549/ATCC NSCLC"
  growth [%]: 20.7
- compound: "O=C(CCCN1C(=O)/C(=C/c2ccccc2F)SC1=S)N1CCOCC1"
  assayed target: "A549/ATCC NSCLC"
  growth [%]: 93.1
- compound: "C=CCn1c(SCC(=O)c2ccccc2)nnc1-c1c[nH]c2ccccc12"
  assayed target: "A549/ATCC NSCLC"
  growth [%]: 100
- compound: "COc1cccc(NC2=CC(=O)C(C)=C(C)C2=O)c1"
  assayed target: "A549/ATCC NSCLC"
  growth [%]: 101
- compound: "Cc1ccc(CNS(=O)(=O)/N=C2\\NC(=O)NC2=C(Cl)Cl)cc1"
  assayed target: "A549/ATCC NSCLC"
  growth [%]: 99.2
- compound: "N=C1CC(=O)NN1C(=O)CSc1nc2sc3c(c2c(=O)n1-c1ccc(Cl)cc1)CCCC3"
  assayed target: "A549/ATCC NSCLC"
  growth [%]: 102
- compound: "N#Cc1ccc(C(=O)CSc2nc(Nc3ccc(S(N)(=O)=O)cc3)c3ccccc3n2)cc1"
  assayed target: "A549/ATCC NSCLC"
  growth [%]: 108
- compound: "CN1C(=S)N(C)C2C1NN=C1SC(c3ccccc3)=CC(=O)N12 (configuration not stated)"
  assayed target: "A549/ATCC NSCLC"
  growth [%]: 93.7
- compound: "NS(=O)(=O)c1ccc(Nc2nc(Nc3ccccc3)nc(-n3nc(-c4ccccc4)cc3-c3ccccc3)n2)cc1"
  assayed target: "A549/ATCC NSCLC"
  growth [%]: 25.9
- compound: "COc1ccc(Cc2nn(CC(=O)N/N=C/c3ccc(Cl)cc3)c(=O)c3c(C)noc23)cc1"
  assayed target: "A549/ATCC NSCLC"
  growth [%]: 46
- compound: "Clc1ccc2c(OCCCN3CCOCC3)c3oc4ccccc4c3nc2c1"
  assayed target: "A549/ATCC NSCLC"
  growth [%]: 33.5
- compound: "Cc1ccc2ccc3ccc(C)nc3c2n1.Cc1ccc2ccc3ccc(C)nc3c2n1.Oc1c(Cl)cc(Cl)c2ccc(CN3CCCCC3)nc12.[Ru]"
  assayed target: "A549/ATCC NSCLC"
  growth [%]: -42.7
- compound: "COc1cc(/C=C/C(=O)c2cc(OC)c(OC)c(OC)c2)ccc1OCc1ccc(F)cc1"
  assayed target: "A549/ATCC NSCLC"
  growth [%]: 51.2
- compound: "CC(C)(O)c1cncc(-c2ccc3ncnc(N4CCc5cc(F)c(Cl)cc54)c3c2)c1"
  assayed target: "A549/ATCC NSCLC"
  growth [%]: 15.8
- compound: "C=CCn1c(SCC(=O)c2ccc(Br)cc2)nnc1-c1c[nH]c2ccccc12"
  assayed target: "A549/ATCC NSCLC"
  growth [%]: 103
- compound: "OC1CCc2c(-c3ccc4ncnc(N5CCc6cc(F)c(Cl)cc65)c4c3)cncc21 (configuration not stated)"
  assayed target: "A549/ATCC NSCLC"
  growth [%]: 50.3
- compound: "N#Cc1nc(-c2ccccc2)oc1S(=O)(=O)N1CCCCC1"
  assayed target: "A549/ATCC NSCLC"
  growth [%]: 98.7
- compound: "COC(=O)c1ccc(NC(=S)N2CCc3ccc([N+](=O)[O-])cc3C2)cc1O"
  assayed target: "A549/ATCC NSCLC"
  growth [%]: 106
- compound: "O=C1c2c(c3c4cccnc4[nH]c3c3ccc4ccccc4c23)C(=O)N1CCO"
  assayed target: "A549/ATCC NSCLC"
  growth [%]: 78.3
- compound: "C/C(=N\\NC(N)=O)c1c(O)sc(=O)[nH]c1=O"
  assayed target: "A549/ATCC NSCLC"
  growth [%]: 98.4
- compound: "COc1ccc(NC(=O)c2sc3nc(-c4cnccn4)cc(-c4cccs4)c3c2N)cc1"
  assayed target: "A549/ATCC NSCLC"
  growth [%]: 72.5
- compound: "Clc1ccc(-c2cn3cc(Cc4ccc(Cl)c(Cl)c4)sc3n2)cc1"
  assayed target: "A549/ATCC NSCLC"
  growth [%]: 61.3
- compound: "N#Cc1nc(-c2ccccc2)oc1N1CCC(CO)C1 (configuration not stated)"
  assayed target: "A549/ATCC NSCLC"
  growth [%]: 95.2
- compound: "COc1ccc(-c2nc3ccc(-c4nnc(SCC(=O)Nc5ccc(C(=O)/C=C/c6ccccc6)cc5)o4)cc3[nH]2)cc1OC"
  assayed target: "A549/ATCC NSCLC"
  growth [%]: 102
- compound: "Cc1ccc2c(n1)C(=O)C(Cl)=C(Nc1cccc(C(C)C)c1)C2=O"
  assayed target: "A549/ATCC NSCLC"
  growth [%]: 29.9
